Recorded koff by entry
- tested-target: T1, hNPR1-mFc:hANP or hNPR1-hFc:hANP complex (human, UniProt P01160 124-151)
- T1 construct: also called human NPR1 complexed to ANP
- assay-comment: SPR, mAb captured, 25C
- Protocol: Equilibrium dissociation constant (KD) for different NPR1 reagents binding to purified anti-NPR1 monoclonal antibodies (mAbs) were determined using a real-time surface plasmon resonance based Biacore 4000 biosensor. All binding studies were performed in 10 mM HEPES, 150 mM NaCl, 3 mM EDTA, and 0.05% v/v Surfactant Tween-20, pH 7.4 (HBS-ET) running buffer at 25° C. and 37° C. […]
reported-endpoint: koff (s⁻¹)

>  <binder>
mAb22809 (antibody, human IgG4, V domains shown) VH: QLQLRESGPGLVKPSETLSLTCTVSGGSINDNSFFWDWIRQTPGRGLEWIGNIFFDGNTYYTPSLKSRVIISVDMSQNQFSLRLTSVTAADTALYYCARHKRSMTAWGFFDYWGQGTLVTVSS VL: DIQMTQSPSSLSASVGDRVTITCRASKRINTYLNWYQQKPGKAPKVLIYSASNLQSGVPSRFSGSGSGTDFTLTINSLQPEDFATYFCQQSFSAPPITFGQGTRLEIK

>  <unit-of-measure>
s⁻¹

>  <value-measured>
0.000193

$$$$
>  <binder>
mAb25508 (antibody, human IgG4, V domains shown) VH: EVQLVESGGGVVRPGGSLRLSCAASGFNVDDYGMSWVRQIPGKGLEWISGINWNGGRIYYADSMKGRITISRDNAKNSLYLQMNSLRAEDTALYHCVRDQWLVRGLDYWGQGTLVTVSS VL: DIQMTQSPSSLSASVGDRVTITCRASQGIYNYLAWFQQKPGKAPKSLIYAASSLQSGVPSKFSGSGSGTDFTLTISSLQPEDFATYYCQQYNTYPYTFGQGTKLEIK

>  <unit-of-measure>
s⁻¹

>  <value-measured>
8.97e-05

$$$$
>  <binder>
mAb25497 (antibody, human IgG4, V domains shown) VH: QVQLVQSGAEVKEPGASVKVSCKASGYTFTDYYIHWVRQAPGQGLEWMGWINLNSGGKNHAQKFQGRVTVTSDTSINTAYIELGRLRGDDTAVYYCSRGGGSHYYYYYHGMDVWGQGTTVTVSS VL: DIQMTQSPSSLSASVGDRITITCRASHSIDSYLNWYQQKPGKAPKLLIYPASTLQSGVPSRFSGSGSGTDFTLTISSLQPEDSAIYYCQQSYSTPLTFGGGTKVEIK

>  <unit-of-measure>
s⁻¹

>  <value-measured>
4.56e-05

$$$$
>  <binder>
mAb22810 (antibody, human IgG4, V domains shown) VH: EVQLVESGGGLVKPGGSLRLSCVVSGFTFRIYTMNWVRQAPGKGLEWVASISSSSSFINYADSLKGRFTISRDNAQNSLYLQMNSLRAEDTAIYYCARAAGNDVLPGRMDVWGQGTSVTVSS VL: EIVLTQSPGTLSLSPGERATLSCRASQSVSSNYLAWYQQKPGQVPSLLIYGASSRATGIPDRFSGSGSGTDFTLTITRLEPEDFAVYYCQQYGISPWTFGQGTKVEIK

>  <unit-of-measure>
s⁻¹

>  <value-measured>
0.000344

$$$$
>  <binder>
mAb22035 (antibody, human IgG4, V domains shown) VH: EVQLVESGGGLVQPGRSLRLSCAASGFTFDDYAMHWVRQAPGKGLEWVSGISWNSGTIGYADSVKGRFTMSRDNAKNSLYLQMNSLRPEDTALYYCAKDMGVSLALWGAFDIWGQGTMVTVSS VL: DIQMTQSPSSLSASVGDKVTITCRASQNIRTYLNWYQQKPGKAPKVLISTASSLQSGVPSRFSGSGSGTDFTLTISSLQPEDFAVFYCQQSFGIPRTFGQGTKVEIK

>  <unit-of-measure>
s⁻¹

>  <value-measured>
7.78e-05

$$$$
>  <binder>
mAb25491 (antibody, human IgG4, V domains shown) VH: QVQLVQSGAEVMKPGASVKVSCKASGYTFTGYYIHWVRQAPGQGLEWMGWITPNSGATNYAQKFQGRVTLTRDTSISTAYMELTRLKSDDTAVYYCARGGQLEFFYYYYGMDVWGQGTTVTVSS VL: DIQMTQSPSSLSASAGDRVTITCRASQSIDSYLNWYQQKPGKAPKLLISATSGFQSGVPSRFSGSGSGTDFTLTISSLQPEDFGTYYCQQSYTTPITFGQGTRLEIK

>  <unit-of-measure>
s⁻¹

>  <value-measured>
4.15e-05

$$$$
>  <binder>
mAb22033 (antibody, human IgG4, V domains shown) VH: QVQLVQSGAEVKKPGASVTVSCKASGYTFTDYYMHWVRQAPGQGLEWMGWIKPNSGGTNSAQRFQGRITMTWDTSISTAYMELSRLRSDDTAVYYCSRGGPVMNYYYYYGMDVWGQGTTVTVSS VL: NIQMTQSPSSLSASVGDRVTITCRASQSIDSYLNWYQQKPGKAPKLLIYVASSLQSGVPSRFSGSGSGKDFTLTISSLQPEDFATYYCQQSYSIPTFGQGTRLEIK

>  <unit-of-measure>
s⁻¹

>  <value-measured>
8.6e-05

$$$$
